- Tested on: K-562 leukemia
- test: NCI-60 one-dose screen, 48 h
- conditionSet: 10 µM unless noted
About 83,000 compounds went through this panel and 20% of them were active in at least one assay; those are over-represented in the sample as a whole. Calls of active or inactive are those of the source. The calls were made as follows: active = growth percent below 10; inactive = the rest.
Your reply should match one of these outcome classes. active, inactive

INSERT INTO assay_data (compound, cat) VALUES
  ('C=C1C(=O)O[C@H]2[C@H]1CC/C(COC(=O)NCc1ccc(Cn3c(=O)sn(CCCl)c3=O)cc1)=C\CC[C@@]1(C)O[C@@H]21', 'active'),
  ('OC(CCCCCCCCC(O)CN1CCc2ccccc2C1)CN1CCc2ccccc2C1 (stereo not given)', 'inactive');

Data request: Called result for "COc1cnc2c(c1)C(=O)c1c-2n(CCCN2CCN(C)CC2)c(=O)c2cc(Cl)ccc12"
Data returned: active

Data request: Called result for "C=CCCCCOc1cccc(/C=C2\N=C3SCCCN3C2=O)c1"
Data returned: inactive

Data request: Called result for "COc1ccc2nc3cc(Cl)ccc3c(NC(=O)CSc3ccc(Cl)cc3)c2c1"
Data returned: active

* * *

Reported growth values for the following compounds.
- Tested on: MCF7 breast
- test: NCI-60 one-dose screen, 48 h (100 = growth as untreated, 0 = no growth, -100 = all killed)
- conditionSet: 10 µM unless noted
Compounds without any hit were thinned out: in the full panel of roughly 83,000, 20% have a hit. Calls of active or inactive are those of the source. How the source made its calls: active means growth percent below 10; inactive means the rest.

INSERT INTO measurements (compound, reportedmetric, experimentalvalue) VALUES
  ('O=[N+]([O-])c1ccc(SSc2ccc([N+](=O)[O-])cc2Cl)c(Cl)c1', 'growth', '77.3% (inactive)'),
  ('NS(=O)(=O)c1ccc(CCn2c(SCC(=O)N/N=C/c3cccnc3)nc3ccccc3c2=O)cc1', 'growth', '79.6% (inactive)'),
  ('COc1cc(C2CC(c3ccccc3)=NN2C=O)ccc1Oc1ccnc2cc(Cl)ccc12 (configuration not stated)', 'growth', '50.5% (inactive)'),
  ('CCOC(=O)N1C2CCC(C2)N1C(=O)OCC', 'growth', '90.1% (inactive)'),
  ('CNCCCn1c2c(c3ccc(Cl)cc3c1=O)C(=O)c1cc(OC)cnc1-2', 'growth', '-45.4% (active)'),
  ('CCSc1cnnc2ccccc12', 'growth', '108% (inactive)');

Let us examine a further case.
Data request: Fill in the recorded growth for this compound, with MCF7 breast as test system: CC[C@]1(O)C[C@H]2CN(CCc3c([nH]c4ccccc34)C(C(=O)OC)(c3cc4c(cc3OC)N(C)[C@H]3[C@@](O)(C(=O)OC)[C@H](OC(C)=O)[C@]5(CC)[C@@H]6C[C@@H]6CN6CC[C@]43[C@@H]65)C2)C1 (some centres not stated)
Data returned: 4.81% (active)

* * *

Reported growth values for the following compounds.
- Test system: HCT-116 colon
- test: NCI-60 one-dose screen, 48 h (100 = growth as untreated, 0 = no growth, -100 = all killed)
- conditionSet: 10 µM unless noted
About 83,000 compounds went through this panel and 20% of them were active in at least one assay; those are over-represented in the sample as a whole. Active and inactive are the calls of the source. The calls were made as follows: active = growth percent below 10; inactive = the rest.

Answered examples (8):
INSERT INTO measurements (compound, reportedmetric, experimentalvalue) VALUES
  ('C=CCN1C(=O)/C(=c2\sc3n(c2=O)C2C(NN=3)N(CC)C(=O)N2CC)c2ccccc21 (configuration not stated)', 'growth', '10.7% (inactive)'),
  ('COc1cccc(N2CCN(c3ncnc4cc[nH]c34)CC2)c1', 'growth', '35.8% (inactive)'),
  ('CCN(CC)CC(=O)Nc1c(C)ccc(N)c1C', 'growth', '84% (inactive)'),
  ('CC1=C(/C=C/C(C)=C/C=C(C(=O)O)\C(C)=C\C(=O)O)C(C)(C)CCC1', 'growth', '105% (inactive)'),
  ('CC(C)c1nc2ccccc2n1CC(=O)N/N=C/c1cccc(O)c1', 'growth', '87% (inactive)'),
  ('COc1ncnc2[nH]cc(CN3CCN(c4ccc(F)cc4)CC3)c12', 'growth', '111% (inactive)'),
  ('Cc1cc2nc(CN)[nH]c2cc1C', 'growth', '104% (inactive)'),
  ('Cc1ccc([C@H]2c3[nH]c4ccccc4c3C[C@H]3C(=O)N(CCCCCCC(=O)NO)CC(=O)N23)cc1', 'growth', '15.8% (inactive)');

Data request: Given "O=C1/C(=C/c2ccccc2)SC(=Nc2ccccc2)N1Nc1ccccc1" , state its recorded growth.
Data returned: -23.4% (active)

Data request: Given "CCN(CC)CC(=O)Nc1c(C)cc(C(=O)NN)cc1C" , state its recorded growth.
Data returned: 102% (inactive)

Data request: Given "Clc1cc(Cl)cc(-c2cnc3nonc3n2)c1" , state its recorded growth.
Data returned: 72.9% (inactive)

Data request: Given "O=[N+]([O-])c1ccc(N/N=C\c2ccc(O)cc2O)nc1" , state its recorded growth.
Data returned: 21.3% (inactive)

Data request: Given COc1ccc(C2c3cccn3-c3ccccc3N2C(C)=O)cc1 (configuration not stated) , state its recorded growth.
Data returned: 97.8% (inactive)

Data request: Given "CN(C)c1ccc(/C=C\c2cccc[n+]2C)cc1" , state its recorded growth.
Data returned: 19.3% (inactive)
